Parameter MIC, tested on Aspergillus niger, listed per item.

| sampleSmiles | MIC |
| --- | --- |
| COC(=O)N(SC(F)(Cl)Cl)c1ccc(Cl)cc1Cl | < 20 µg/mL |
| COC(=O)N(SC(F)(Cl)Cl)c1ccc(C)c(Cl)c1 | < 20 µg/mL |
| COC(=O)N(SC(F)(Cl)Cl)c1cccc(Cl)c1Cl | < 20 µg/mL |
| COC(=O)N(SC(F)(Cl)Cl)c1ccc(Cl)cc1C | < 20 µg/mL |
| CCOC(=O)N(SC(F)(Cl)Cl)c1cc(Cl)cc(Cl)c1 | 35 µg/mL |
| COC(=O)N(SC(F)(Cl)Cl)c1cccc(Cl)c1 | < 20 µg/mL |
| COC(=O)N(SC(F)(Cl)Cl)c1ccc(Cl)cc1 | < 20 µg/mL |
| COC(=O)N(SC(Cl)(Cl)Cl)c1ccccc1 | 5 µg/mL |
| COC(=O)N(SC(F)(Cl)Cl)c1ccc(Cl)c(Cl)c1 | 35 µg/mL |
